biological target: human NaV1.8 (Homo sapiens, UniProt Q9Y5Y9); assay: Nav1.8 Qube® Assay (automated 384-well patch-clamp, inhibition of sodium current); conditions: human NaV1.8 channels stably expressed in HEK 293 cells, room temperature
Sequence (Q9Y5Y9 whole entry): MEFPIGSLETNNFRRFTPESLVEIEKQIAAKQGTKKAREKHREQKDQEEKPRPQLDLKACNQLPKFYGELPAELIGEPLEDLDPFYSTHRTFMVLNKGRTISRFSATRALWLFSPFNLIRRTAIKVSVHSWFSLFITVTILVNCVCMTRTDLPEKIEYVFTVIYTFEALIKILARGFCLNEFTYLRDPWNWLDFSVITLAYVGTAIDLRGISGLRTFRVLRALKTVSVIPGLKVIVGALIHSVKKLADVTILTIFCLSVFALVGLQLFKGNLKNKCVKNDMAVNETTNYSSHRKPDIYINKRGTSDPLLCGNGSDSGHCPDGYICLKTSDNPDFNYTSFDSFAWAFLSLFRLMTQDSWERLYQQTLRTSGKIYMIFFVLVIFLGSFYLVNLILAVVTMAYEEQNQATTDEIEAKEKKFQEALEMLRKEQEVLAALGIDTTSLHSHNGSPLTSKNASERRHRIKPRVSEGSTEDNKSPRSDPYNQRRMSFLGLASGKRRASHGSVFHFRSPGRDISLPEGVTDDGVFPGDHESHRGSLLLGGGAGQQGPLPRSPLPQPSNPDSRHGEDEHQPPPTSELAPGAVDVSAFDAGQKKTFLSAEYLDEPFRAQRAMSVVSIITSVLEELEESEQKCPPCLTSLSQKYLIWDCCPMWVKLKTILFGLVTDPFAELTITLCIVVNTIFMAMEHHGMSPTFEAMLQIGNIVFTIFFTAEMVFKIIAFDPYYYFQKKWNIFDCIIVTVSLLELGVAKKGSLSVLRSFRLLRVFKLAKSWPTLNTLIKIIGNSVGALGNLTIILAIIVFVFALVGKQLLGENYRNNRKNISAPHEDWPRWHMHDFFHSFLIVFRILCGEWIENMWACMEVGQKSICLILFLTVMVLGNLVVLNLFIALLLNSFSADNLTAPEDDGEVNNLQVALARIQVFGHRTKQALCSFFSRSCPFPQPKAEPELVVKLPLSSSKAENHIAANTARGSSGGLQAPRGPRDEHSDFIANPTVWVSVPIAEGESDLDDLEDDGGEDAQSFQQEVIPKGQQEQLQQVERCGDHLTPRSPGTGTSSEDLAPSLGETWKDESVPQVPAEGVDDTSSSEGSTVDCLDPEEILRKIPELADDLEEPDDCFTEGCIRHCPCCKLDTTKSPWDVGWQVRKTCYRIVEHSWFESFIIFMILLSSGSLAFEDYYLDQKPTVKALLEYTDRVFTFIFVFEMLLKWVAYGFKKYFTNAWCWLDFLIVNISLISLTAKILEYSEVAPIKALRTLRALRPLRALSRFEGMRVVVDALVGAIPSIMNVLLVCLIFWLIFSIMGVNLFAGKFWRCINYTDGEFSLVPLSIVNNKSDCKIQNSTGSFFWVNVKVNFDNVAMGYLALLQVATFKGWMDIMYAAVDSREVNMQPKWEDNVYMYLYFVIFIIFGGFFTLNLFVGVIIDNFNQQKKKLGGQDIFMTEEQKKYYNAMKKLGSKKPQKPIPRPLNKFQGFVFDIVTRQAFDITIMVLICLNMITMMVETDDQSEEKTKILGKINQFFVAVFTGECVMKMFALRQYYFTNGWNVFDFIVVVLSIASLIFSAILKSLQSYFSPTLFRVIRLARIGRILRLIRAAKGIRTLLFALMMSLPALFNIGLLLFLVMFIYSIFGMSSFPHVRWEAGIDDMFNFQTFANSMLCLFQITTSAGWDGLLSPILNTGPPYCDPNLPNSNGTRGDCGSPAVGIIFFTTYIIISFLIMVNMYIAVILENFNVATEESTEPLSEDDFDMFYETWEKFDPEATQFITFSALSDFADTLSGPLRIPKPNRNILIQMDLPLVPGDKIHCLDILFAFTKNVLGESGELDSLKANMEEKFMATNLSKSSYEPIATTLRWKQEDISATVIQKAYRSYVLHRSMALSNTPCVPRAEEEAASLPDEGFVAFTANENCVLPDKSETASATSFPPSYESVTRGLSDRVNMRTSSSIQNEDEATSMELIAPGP
pIC50: −log10 of the molar value.
# cutoff 8 applies to pIC50; >= gives Fulfilled, < gives Not fulfilled

>  <molecule>
O=C1CN(C(=O)NC(c2ccc(F)c(Cl)c2)C23CCC(C(F)(F)F)(CC2)CC3)CCN1 (single isomer, unassigned) [Example 12A]

>  <group>
Not fulfilled

$$$$
>  <molecule>
C[C@@H]1C(=O)NCCN1C(=O)NC(c1ccc(F)c(C(F)(F)F)c1)[C@H]1C[C@H](C(F)(F)F)C1 (single isomer, unassigned) [Example 51A]

>  <group>
Not fulfilled

$$$$
>  <molecule>
C[C@@H]1C(=O)NCCN1C(=O)NC(c1ccc(F)c(Cl)c1F)C1COc2ccccc2C1 (single isomer, unassigned) [Example 62C]

>  <group>
Not fulfilled

$$$$
>  <molecule>
C[C@@H]1C(=O)NCCN1C(=O)NC(c1ccc(F)c(C(F)(F)F)c1)[C@H]1C[C@H](C(F)(F)F)C1 (single isomer, unassigned) [Example 51B]

>  <group>
Fulfilled

$$$$
>  <molecule>
O=C1NCCN(C(=O)N[C@H](c2ccc(F)c(Cl)c2F)[C@H]2C[C@H](C(F)(F)F)C2)C1C(F)(F)F (single isomer, unassigned) [Example 63A]

>  <group>
Fulfilled

$$$$
>  <molecule>
C[C@@H]1C(=O)NCCN1C(=O)N[C@@H](c1ccc(F)c(Cl)c1F)[C@H]1C[C@H](C(F)(F)F)C1 [Example 20B]

>  <group>
Not fulfilled

$$$$
>  <molecule>
C[C@@H]1C(=O)NCCN1C(=O)NC(c1ccc(Cl)c(C(F)F)c1)C1CCC(C(F)(F)F)CC1 (single isomer, unassigned) [Example 37A]

>  <group>
Not fulfilled

$$$$
>  <molecule>
O=C1NCCN(C(=O)N[C@H](c2ccc(F)c(Cl)c2F)[C@H]2C[C@H](C(F)(F)F)C2)[C@@H]1CO [Example 64]

>  <group>
Fulfilled

$$$$

* * *

target: human NaV1.8 (Homo sapiens); assay: Nav1.8 Qube® Assay (automated 384-well patch-clamp, inhibition of sodium current); details: human NaV1.8 channels stably expressed in HEK 293 cells, room temperature
Catalogue of compounds with associated IC50

>  <compound>
CC(N1CCC(C(NC(=O)N2CCNC(=O)[C@H]2C)c2ccc(F)c(Cl)c2)CC1)C(F)(F)F (single isomer, unassigned) [Example 18A]

>  <experimental target>
human NaV1.8 (Homo sapiens)

>  <IC50, nM>
4.1

$$$$
>  <compound>
COC1CC(C(NC(=O)N2CCNC(=O)[C@H]2C)c2ccc(F)c(Cl)c2F)C1 (single isomer, unassigned) [Example 40C]

>  <experimental target>
human NaV1.8 (Homo sapiens)

>  <IC50, nM>
362

$$$$
>  <compound>
O=C1CN(C(=O)NC(c2ccc(F)c(Cl)c2F)[C@H]2CC[C@H](C(F)(F)F)CC2)CCN1 (single isomer, unassigned) [Example 10B]

>  <experimental target>
human NaV1.8 (Homo sapiens)

>  <IC50, nM>
3.87

$$$$
>  <compound>
C[C@@H]1C(=O)NCCN1C(=O)NC(c1ccc(F)c(Cl)c1F)C1COc2ccccc2C1 (single isomer, unassigned) [Example 62A]

>  <experimental target>
human NaV1.8 (Homo sapiens)

>  <IC50, nM>
3.2

$$$$
>  <compound>
C[C@@H]1C(=O)NCCN1C(=O)NC(c1ccc(Cl)c(C(F)(F)F)n1)C1CC(C(F)(F)F)C1 (single isomer, unassigned) [Example 47A]

>  <experimental target>
human NaV1.8 (Homo sapiens)

>  <IC50, nM>
11.4

$$$$
>  <compound>
C[C@@H]1C(=O)NCCN1C(=O)NC(c1ccc(Cl)c(C(F)F)c1)C1CCC(C(F)(F)F)CC1 (single isomer, unassigned) [Example 37C]

>  <experimental target>
human NaV1.8 (Homo sapiens)

>  <IC50, nM>
27.2

$$$$
